System: UO-31 renal
Assay: NCI-60 one-dose screen, 48 h
Conditions: 10 µM unless noted
The panel holds about 83,000 compounds, 20% with a hit somewhere; the sample as a whole holds those more often. Calls of active or inactive are those of the source. The calls were made as follows: active = growth percent below 10; inactive = the rest.
Classes used: active, inactive

molecule: CC(C)(C)[Si](C)(C)OC1[C@@H](COC(=O)NC(=O)CCl)O[C@@H](n2cnc3c(N)ncnc32)[C@H]1O[Si](C)(C)C(C)(C)C (some centres undefined)
label-value: inactive

molecule: COc1ccc(-c2c3c(N)c4c(nc3nc3c2c(C)nn3-c2ccccc2)CCCC4)cc1
label-value: inactive

molecule: COc1cc(CNCCCN2C(=O)c3ccc4c5c(ccc(c35)C2=O)C(=O)N(CCCNCc2cc(OC)c(OC)c(OC)c2)C4=O)cc(OC)c1OC
label-value: active

molecule: Cc1ccc(S(=O)(=O)N2CCc3ccc(O)c4c3C2Cc2ccc3c(c2-4)OCO3)cc1 (centres undefined)
label-value: inactive

molecule: COc1ncnc2c1ncn2C/C(Br)=C(\Br)CCl
label-value: active

molecule: COc1ccccc1-n1c(SCc2cc(OC)c(OC)c(OC)c2)nc2ccc(Cl)cc2c1=O
label-value: inactive

molecule: COc1cccc(-c2ccc3c(c2)C2CCN(Cc4ccccc4)C3C2)c1 (centres undefined)
label-value: inactive

molecule: Oc1cccc(Nc2nc(-c3ccccn3)cs2)c1
label-value: inactive

molecule: Oc1ccccc1/C=N/Nc1nc2ccccc2s1
label-value: inactive

The measurements presented in this section are drawn from PubChem BioAssay (NCI).
